testedSystem: Voltage-gated potassium channel subunit beta-2 (Rattus norvegicus) (UniProt P62483)
Sequence (P62483 whole entry, looked up): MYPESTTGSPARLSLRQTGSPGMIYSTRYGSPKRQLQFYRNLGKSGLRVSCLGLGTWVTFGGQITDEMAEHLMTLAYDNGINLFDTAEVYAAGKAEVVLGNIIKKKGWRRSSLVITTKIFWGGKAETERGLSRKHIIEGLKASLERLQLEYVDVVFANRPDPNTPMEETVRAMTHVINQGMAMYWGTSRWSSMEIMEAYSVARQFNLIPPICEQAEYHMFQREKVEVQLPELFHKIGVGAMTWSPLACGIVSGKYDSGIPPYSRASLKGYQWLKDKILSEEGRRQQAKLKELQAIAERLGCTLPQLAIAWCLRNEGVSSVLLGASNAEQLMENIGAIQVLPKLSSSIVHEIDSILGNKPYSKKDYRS
procedureSummary: KvBeta enzyme negative modulators, primary screen, biochemical, NADPH fluorescence (AID 622);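 further: slope of raw intensity against log time taken from 70 to 1610 s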
appliedConditions: recombinant KvBeta, 4-cyanobenzaldehyde reduction, at 10 µM, hits give high values
The following molecules are shown together with reported fluorescence slope values.
API doc: respond with a numeric literal and nothing else, no unit.

COc1ccc(OC)c(NC(=O)CSc2nnc(-c3ccco3)n2-c2ccc(C(=O)O)cc2)c1 : -0.505
CNC(=O)c1cc2ccccc2o1 : -0.428
O=C(NCCN1CCCCC1)c1ccc(=O)oc1 : -0.482
CN1CCN(c2nc3c(c(=O)n(C)c(=O)n3C)n2Cc2cccc3ccccc23)CC1 : -0.457
O=C(O)C1CC=CCC1C(=O)N1CCN(c2nc(-c3ccccc3)c3ccccc3n2)CC1 (configuration not stated) : -0.305
COCCOC(=O)c1c(C)nc(SCC(=O)Nc2ccc(OC)cc2)c(C#N)c1-c1ccco1 : -0.422
Cc1cc(C)cc(-n2c3nc4ccccc4nc3c3c(=O)n(Cc4ccco4)cnc32)c1 : -0.396
Cc1c(Cl)c(C(F)(F)F)nn1CC(=O)N1CCSCC1 : -0.555
CCOc1ccc(C2=Nn3c(nnc3-c3ccccn3)SC2)cc1 : -0.467
C/C=C/c1ccccc1OCc1ccc(C(=O)O)o1 : -0.571

Query :: Please report the measured fluorescence slope for O=S1CCCSC1c1cccnc1 (configuration not stated)
Result :: -0.507

Query :: Output fluorescence slope of CC(O)Cn1cnc2c1c(=O)n(C)c(=O)n2C (configuration not stated)
Result :: -0.45

====

testedSystem: Voltage-gated potassium channel subunit beta-2 (Rattus norvegicus) (UniProt P62483)
procedureSummary: KvBeta enzyme negative modulators, primary screen, biochemical, NADPH fluorescence (AID 622);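 further: slope of raw intensity against log time taken from 70 to 1610 s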
appliedConditions: recombinant KvBeta, 4-cyanobenzaldehyde reduction, at 10 µM
The source made the active and inactive calls.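 How the source made its calls: active means fluorescence slope higher than the sample average by over 3 SD (cut at about -0.22 in these data, passing the limit was not always enough); inactive means the rest.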
The reply should name one outcome from active, inactive

The following compounds have reported results that may help.
CCN(CC)c1ncc(C)c(=O)[nH]1 : inactive
Cc1cc(C)c2c(N)c(C(=O)c3ccccc3)oc2n1 : inactive
CCc1cccc(CC)c1N(COC)C(=O)Cn1nnc2ccccc21 : inactive
Cc1onc(-c2ccccc2Cl)c1C(=O)N1CCN(c2nc3ccccc3s2)CC1 : inactive
Cc1nc2sc(C#N)c(N)c2c2c1CCCC2 : active
Cc1cccn2c(=O)c3cc(C#N)c(=N)n(Cc4ccncc4)c3nc12 : inactive
CCCC1C2C(=O)N(c3ccccc3OC)C(=O)C2ON1c1ccccc1 (stereo unspecified) : inactive
COc1ccc(N/C(=N\c2nc(C)cc(C)n2)NC(=O)C(C)C)cc1OC : inactive

Query :: Could you kindly confirm the outcome this assay logged for Cc1ccccc1C(OCCN(C)C)c1ccccc1 (stereo unspecified) ?
Result :: inactive

Query :: Write down the call the test reported for this compound. Item: "Cc1ccc(S(=O)(=O)N2CCC(N3CCCCCC3)CC2)cc1"
Result :: inactive

Query :: What outcome does the record of this test show for COc1cc(C2C3C(=O)N(c4ccccc4)C(=O)C3ON2c2ccccc2)ccc1O (stereo unspecified) ?
Result :: inactive

====

procedureSummary: inhibitors of Chlamydomonas gravitaxis, primary screen, whole organism, Chlamydomonas reinhardtii, WT vs cilia-less mutant, absorbance, 96-well (AID 463189);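 further: 0% = wild type cc124 cells in DMSO and 100% = ciliumless bld1 mutant cells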
appliedConditions: OD600 absorbance, 2 days, at 10 µM, hits give high values
Listing of recorded inhibition by entry.
Please respond with the number in % and leave the unit unwritten.

Take a look at these entries with their results.
CC1(C)Cc2c(C#N)c(SCC(=O)c3ccccc3)nc(N3CCCC3)c2CO1 : 46.4
O=C(O)CCN(CCC(=O)O)c1nnc(SCc2ccccc2)s1 : -1.99
C=COC(=O)CSc1nc(-c2cccs2)ccc1C#N : 8.37
CCCCNC(=O)c1c(N)n(/N=C/c2cccnc2)c2nc3ccccc3nc12 : 29
O=c1c(F)cn(C2CCCO2)c(=O)n1Cc1ccccc1Cl (stereo unspecified) : 4.11

Could you now consider this next compound?
Query :: For "COc1ccc(C(=O)CSC2=C(C#N)C3(CCCCC3)C(C#N)=C(N)N2)cc1" , write its inhibition.
Result :: -3.04
